experiment-summary: JC-1 mitochondrial signal, unstimulated myeloma cells – cell-based, JC-1 fluorescence, RPMI8226, 24 h, 100 nL compound, profiling panel (AID 1169); note: test concentration not given here
test-parameters: JC-1 mitochondrial potential fluorescence, higher = more signal
recorded-endpoint: z-score

>>> val("COc1ccc([Si](C)(C)[C@@H]2[C@@H](CCO)O[C@]3(C(=O)N(Cc4ccc(N5C(=O)c6ccccc6Oc6ccccc65)cc4)c4ccccc43)[C@H]2C)cc1")
-1.06
>>> val("Cc1ccc(S[C@]2(C(=O)NCC(C)C)CC(=O)N(C3CCCCC3)[C@@H]2c2ccc(CO)cc2I)cc1")
-0.947
>>> val("Cc1ccc(F)cc1S(=O)(=O)N[C@@H]1CCN(C(=O)c2ccc(OC(C)C)cc2)C1")
-0.276
>>> val("NC(=O)[C@H]1[C@@H]2C(=O)O[C@@H](c3ccccc3)[C@@H](c3ccccc3)N2[C@@H](c2ccc(O)cc2)[C@]12C(=O)Nc1ccc(C#CC3(O)CCCCCC3)cc12")
-0.808

---

experiment-summary: growth of efflux-deficient E. coli DRC39 – strain DRC39, OD650, 24 h, E. coli filamentation inducers, primary screen (AID 1178);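 note: growth measured as culture turbidity by optical density at 650 nm; test concentration not given here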
test-parameters: E. coli DRC39 acrAB, higher = more signal, called active from +8 up or from −8 down
Entries annotated with measured z-score
recorded-endpoint: z-score

>>> val("O=c1c2ccc(Br)cc2nc(-c2ccccc2)n1Cc1cccc(O)c1")
0.362
>>> val("COc1cc(C(O)C2C=CC3C(=O)N(C)C(=O)C3N2NC(=O)OC(C)(C)C)cc(OC)c1OC (centres undefined)")
-1.01
>>> val("O=C1O[C@@H](c2ccccc2)[C@@H](c2ccccc2)N2[C@@H](c3ccc(O)cc3)[C@]3(C(=O)Nc4ccc(C#CC5(O)CCCCCC5)cc43)[C@@H](C(=O)N3CCN(c4ncccn4)CC3)[C@H]12")
0.614
>>> val("C=CC[C@]1(C(=O)N2CCOCC2)N=C(c2ccc(OCCCO)cc2)O[C@H]1c1ccccc1CN=[N+]=[N-]")
-0.186
>>> val("COCCOC(=O)N1C(=O)[C@@]2(c3cc(C#CCCO)ccc31)[C@H](C(=O)N1CCc3cc(OC)c(OC)cc3C1)[C@H]1C(=O)O[C@H](c3ccccc3)[C@H](c3ccccc3)N1[C@@H]2c1ccc(OCCO)cc1")
0.443
>>> val("C=CCC(OC(C)=O)[C@@H]1[C@@H](N(Cc2ccc(-c3cccc(C(F)(F)F)c3)o2)C(=O)c2cccc3ccccc23)c2cc(OCCCO)ccc2N1C(=O)c1ccc(-c2ccccc2)cc1 (some centres undefined)")
0.147
>>> val("CC(C)C(CO)N1C(=O)[C@@H]2[C@H]3C(=O)OCC=C[C@H]3OC23C=CCN(CCN2CCOCC2)C(=O)[C@@H]13 (some centres undefined)")
-0.934
>>> val("Cc1ccc(N2C(=O)c3ccccc3[C@](C)(C(=O)NC(C)C)[C@@H]2c2ccc(CO)cc2)nc1")
0.381
>>> val("COC(=O)[C@@]1(Cc2ccc(F)cc2)[C@H]2c3cc(C(=O)N4CCCC4)n(Cc4ccccc4)c3C[C@H]2CN1C(=O)c1ccccc1")
0.392
>>> val("Cc1ccc(S[C@]2(C(=O)NCc3ccccc3)CC(=O)N(C3Cc4ccccc4C3)[C@@H]2c2ccc(CO)cc2I)cc1")
0.964
>>> val("COC(=O)c1ccc(OC)c(/C=C\\CC(CCc2ccccc2)OC(=O)c2ccncc2)c1 (centres undefined)")
0.0514
>>> val("COC(=O)C(CC#Cc1ccc2c(c1)[C@]1(C(=O)N2)[C@H](C(=O)N2CCc3cc(OC)c(OC)cc3C2)[C@H]2C(=O)O[C@H](c3ccccc3)[C@H](c3ccccc3)N2[C@@H]1c1ccc(O)cc1)C(=O)OC")
0.414
>>> val("[N-]=[N+]=NCc1ccccc1C[C@@]1(C(=O)NCCN2CCOCC2)N=C(c2ccc(OCCCO)cc2)O[C@@H]1c1ccccc1CN=[N+]=[N-]")
0.585
>>> val("O=C(O)[C@]1(CCS(=O)(=O)c2ccccc2)N=C(c2ccc(OCCCO)cc2)O[C@@H]1c1ccccc1")
1.92
